experiment: xn = mol fraction of the nth substance listed; conditions: 323.16 K; 25000 kPa; Liquid; Taylor dispersion method; x1 = 0
value-kind: binary diffusion coefficient (m2/s)

- molecule: "COc1ccccc1Br [1-bromo-2-methoxybenzene] + O=C=O"
  numeric-result: "9.08e-09"
- molecule: "C=CCc1ccccc1 [2-propenylbenzene] + O=C=O"
  numeric-result: "1e-08"
- molecule: "COc1ccccc1F [2-fluoroanisole] + O=C=O"
  numeric-result: "9.89e-09"
- molecule: "C=Cc1cccc(C=C)c1 [1,3-diethenylbenzene] + O=C=O"
  numeric-result: "9.71e-09"

====

test: xn = mol fraction of the nth substance listed; details: 323.16 K; 30000 kPa; Liquid; Taylor dispersion method; x1 = 0

- molecule: "COc1ccccc1F [2-fluoroanisole] + O=C=O"
  binary diffusion coefficient: "9.14e-09 m2/s"
- molecule: "COc1ccccc1Br [1-bromo-2-methoxybenzene] + O=C=O"
  binary diffusion coefficient: "8.52e-09 m2/s"
- molecule: "C=Cc1cccc(C=C)c1 [1,3-diethenylbenzene] + O=C=O"
  binary diffusion coefficient: "8.94e-09 m2/s"
- molecule: "C=CCc1ccccc1 [2-propenylbenzene] + O=C=O"
  binary diffusion coefficient: "9.35e-09 m2/s"

====

This section presents compounds with their documented binary diffusion coefficient values.
assay: xn = mol fraction of the nth substance listed; settings: 313.16 K; 35000 kPa; Liquid; Taylor dispersion method; x1 = 0

- compound: "COc1ccccc1Br [1-bromo-2-methoxybenzene] + O=C=O"
  binary diffusion coefficient (m2/s): "7.15e-09"
- compound: "C=CCc1ccccc1 [2-propenylbenzene] + O=C=O"
  binary diffusion coefficient (m2/s): "7.67e-09"
- compound: "C=Cc1cccc(C=C)c1 [1,3-diethenylbenzene] + O=C=O"
  binary diffusion coefficient (m2/s): "7.69e-09"
- compound: "COc1ccccc1F [2-fluoroanisole] + O=C=O"
  binary diffusion coefficient (m2/s): "7.68e-09"

====

This section presents compounds with their documented binary diffusion coefficient values.
assay: xn = mol fraction of the nth substance listed; conditions: 333.16 K; 25000 kPa; Liquid; Taylor dispersion method; x1 = 0

- compound: "COc1ccccc1Br [1-bromo-2-methoxybenzene] + O=C=O"
  binary diffusion coefficient, m2/s: "1.06e-08"
- compound: "C=Cc1cccc(C=C)c1 [1,3-diethenylbenzene] + O=C=O"
  binary diffusion coefficient, m2/s: "1.11e-08"
- compound: "COc1ccccc1F [2-fluoroanisole] + O=C=O"
  binary diffusion coefficient, m2/s: "1.1e-08"
- compound: "C=CCc1ccccc1 [2-propenylbenzene] + O=C=O"
  binary diffusion coefficient, m2/s: "1.15e-08"

====

This section presents compounds with their documented binary diffusion coefficient values.
test: xn = mol fraction of the nth substance listed; details: 313.16 K; 25000 kPa; Liquid; Taylor dispersion method; x1 = 0

- compound: "COc1ccccc1F [2-fluoroanisole] + O=C=O"
  binary diffusion coefficient, m2/s: "8.69e-09"
- compound: "C=Cc1cccc(C=C)c1 [1,3-diethenylbenzene] + O=C=O"
  binary diffusion coefficient, m2/s: "8.69e-09"
- compound: "COc1ccccc1Br [1-bromo-2-methoxybenzene] + O=C=O"
  binary diffusion coefficient, m2/s: "7.92e-09"
- compound: "C=CCc1ccccc1 [2-propenylbenzene] + O=C=O"
  binary diffusion coefficient, m2/s: "8.93e-09"

====

assay: xn = mol fraction of the nth substance listed; details: 333.16 K; 35000 kPa; Liquid; Taylor dispersion method; x1 = 0
This section presents compounds with their documented binary diffusion coefficient values.

- compound: "C=Cc1cccc(C=C)c1 [1,3-diethenylbenzene] + O=C=O"
  binary diffusion coefficient: "9.47e-09 m2/s"
- compound: "C=CCc1ccccc1 [2-propenylbenzene] + O=C=O"
  binary diffusion coefficient: "9.87e-09 m2/s"
- compound: "COc1ccccc1F [2-fluoroanisole] + O=C=O"
  binary diffusion coefficient: "9.67e-09 m2/s"
- compound: "COc1ccccc1Br [1-bromo-2-methoxybenzene] + O=C=O"
  binary diffusion coefficient: "8.98e-09 m2/s"

====

assay: xn = mol fraction of the nth substance listed; details: 333.16 K; 15000 kPa; Liquid; Taylor dispersion method; x1 = 0
This section presents molecules with their documented binary diffusion coefficient values.

- molecule: "COc1ccccc1Br [1-bromo-2-methoxybenzene] + O=C=O"
  units-label: "m2/s"
  binary diffusion coefficient: "1.28e-08"
- molecule: "C=Cc1cccc(C=C)c1 [1,3-diethenylbenzene] + O=C=O"
  units-label: "m2/s"
  binary diffusion coefficient: "1.51e-08"
- molecule: "COc1ccccc1F [2-fluoroanisole] + O=C=O"
  units-label: "m2/s"
  binary diffusion coefficient: "1.43e-08"
- molecule: "C=CCc1ccccc1 [2-propenylbenzene] + O=C=O"
  units-label: "m2/s"
  binary diffusion coefficient: "1.41e-08"

====

test: xn = mol fraction of the nth substance listed; conditions: 333.16 K; 20000 kPa; Liquid; Taylor dispersion method; x1 = 0
value-kind: binary diffusion coefficient (m2/s)

- compound: "COc1ccccc1F [2-fluoroanisole] + O=C=O"
  value-kind: "binary diffusion coefficient"
  numeric-result: "1.23e-08"
- compound: "COc1ccccc1Br [1-bromo-2-methoxybenzene] + O=C=O"
  value-kind: "binary diffusion coefficient"
  numeric-result: "1.19e-08"
- compound: "C=CCc1ccccc1 [2-propenylbenzene] + O=C=O"
  value-kind: "binary diffusion coefficient"
  numeric-result: "1.22e-08"
- compound: "C=Cc1cccc(C=C)c1 [1,3-diethenylbenzene] + O=C=O"
  value-kind: "binary diffusion coefficient"
  numeric-result: "1.21e-08"

====

This section presents compounds with their documented binary diffusion coefficient values.
test: xn = mol fraction of the nth substance listed; details: 323.16 K; 15000 kPa; Liquid; Taylor dispersion method; x1 = 0

- compound: "C=Cc1cccc(C=C)c1 [1,3-diethenylbenzene] + O=C=O"
  binary diffusion coefficient (m2/s): "1.28e-08"
- compound: "COc1ccccc1Br [1-bromo-2-methoxybenzene] + O=C=O"
  binary diffusion coefficient (m2/s): "1.15e-08"
- compound: "COc1ccccc1F [2-fluoroanisole] + O=C=O"
  binary diffusion coefficient (m2/s): "1.25e-08"
- compound: "C=CCc1ccccc1 [2-propenylbenzene] + O=C=O"
  binary diffusion coefficient (m2/s): "1.23e-08"

====

assay: xn = mol fraction of the nth substance listed; settings: 313.16 K; 15000 kPa; Liquid; Taylor dispersion method; x1 = 0

- molecule: "C=Cc1cccc(C=C)c1 [1,3-diethenylbenzene] + O=C=O"
  binary diffusion coefficient (m2/s): "1.03e-08"
- molecule: "COc1ccccc1Br [1-bromo-2-methoxybenzene] + O=C=O"
  binary diffusion coefficient (m2/s): "9.46e-09"
- molecule: "COc1ccccc1F [2-fluoroanisole] + O=C=O"
  binary diffusion coefficient (m2/s): "1.02e-08"
- molecule: "C=CCc1ccccc1 [2-propenylbenzene] + O=C=O"
  binary diffusion coefficient (m2/s): "1.03e-08"

====

experiment: xn = mol fraction of the nth substance listed; conditions: 333.16 K; 30000 kPa; Liquid; Taylor dispersion method; x1 = 0

- compound: "COc1ccccc1Br [1-bromo-2-methoxybenzene] + O=C=O"
  binary diffusion coefficient, m2/s: "9.45e-09"
- compound: "C=CCc1ccccc1 [2-propenylbenzene] + O=C=O"
  binary diffusion coefficient, m2/s: "1.05e-08"
- compound: "COc1ccccc1F [2-fluoroanisole] + O=C=O"
  binary diffusion coefficient, m2/s: "1.03e-08"
- compound: "C=Cc1cccc(C=C)c1 [1,3-diethenylbenzene] + O=C=O"
  binary diffusion coefficient, m2/s: "9.95e-09"

====

This section presents molecules with their documented binary diffusion coefficient values.
test: xn = mol fraction of the nth substance listed; conditions: 313.16 K; 20000 kPa; Liquid; Taylor dispersion method; x1 = 0

- molecule: "COc1ccccc1F [2-fluoroanisole] + O=C=O"
  binary diffusion coefficient / m2/s: "9.27e-09"
- molecule: "C=CCc1ccccc1 [2-propenylbenzene] + O=C=O"
  binary diffusion coefficient / m2/s: "9.11e-09"
- molecule: "COc1ccccc1Br [1-bromo-2-methoxybenzene] + O=C=O"
  binary diffusion coefficient / m2/s: "8.66e-09"
- molecule: "C=Cc1cccc(C=C)c1 [1,3-diethenylbenzene] + O=C=O"
  binary diffusion coefficient / m2/s: "9.44e-09"

====

This section presents compounds with their documented binary diffusion coefficient values.
test: xn = mol fraction of the nth substance listed; details: 323.16 K; 20000 kPa; Liquid; Taylor dispersion method; x1 = 0
value-kind: binary diffusion coefficient (m2/s)

- compound: "COc1ccccc1F [2-fluoroanisole] + O=C=O"
  numeric-result: "1.05e-08"
- compound: "C=Cc1cccc(C=C)c1 [1,3-diethenylbenzene] + O=C=O"
  numeric-result: "1.06e-08"
- compound: "C=CCc1ccccc1 [2-propenylbenzene] + O=C=O"
  numeric-result: "1.12e-08"
- compound: "COc1ccccc1Br [1-bromo-2-methoxybenzene] + O=C=O"
  numeric-result: "1.01e-08"
